- SUBJECT_OF_TEST: COX1 (Ovis aries (Sheep))
- Sequence (P05979 25-600): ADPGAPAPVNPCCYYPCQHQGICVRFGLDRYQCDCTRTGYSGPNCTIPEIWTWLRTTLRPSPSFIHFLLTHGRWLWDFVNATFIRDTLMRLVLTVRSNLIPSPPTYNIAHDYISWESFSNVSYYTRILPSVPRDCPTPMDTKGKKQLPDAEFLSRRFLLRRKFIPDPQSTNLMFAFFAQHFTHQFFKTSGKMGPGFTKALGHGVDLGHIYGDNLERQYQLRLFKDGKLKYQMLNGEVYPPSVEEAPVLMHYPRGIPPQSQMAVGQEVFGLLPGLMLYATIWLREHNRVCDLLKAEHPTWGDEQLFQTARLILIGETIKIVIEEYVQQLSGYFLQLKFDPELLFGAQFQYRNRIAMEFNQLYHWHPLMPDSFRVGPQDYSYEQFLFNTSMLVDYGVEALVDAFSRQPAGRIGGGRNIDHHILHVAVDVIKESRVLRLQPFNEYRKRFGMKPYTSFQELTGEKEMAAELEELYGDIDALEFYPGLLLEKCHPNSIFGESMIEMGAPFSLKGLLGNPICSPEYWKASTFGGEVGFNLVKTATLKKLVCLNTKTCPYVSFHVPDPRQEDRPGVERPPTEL
- TEST_DETAILS: COX-1 activity, colorimetric assay
- Assay type: biochemical, ovine
- CONDITION_PARAMETERS: screening dose 100 μM; read-out: IC50 μM against COX1
READOUT_LABEL: IC50

MOLECULE | IC50
CCOc1ccccc1C1CC(C(C)(C)C)=NN1c1ccc(C(=O)O)cc1 (centres unmarked) | > 100 µM
CCOc1ccc(C2CC(C(C)(C)C)=NN2c2ccc(C(=O)O)cc2)cc1 (centres unmarked) | > 100 µM
CC(C)(C)C1=NN(c2ccc(S(=O)(=O)O)cc2)C(c2ccc(Cl)cc2)C1 (centres unmarked) | > 100 µM
COc1ccc(C2CC(c3ccccc3)=NN2c2ccc(S(N)(=O)=O)cc2)cc1 (centres unmarked) | > 100 µM
CC(C)(C)C1=NN(c2ccc(C(=O)O)cc2)C(c2ccccc2)C1 (centres unmarked) | > 100 µM

stdin: Supply IC50 value. Item: COc1ccc(C2CC(c3cccc(OC)c3)=NN2c2ccc(C(=O)O)cc2)cc1 (centres unmarked)
stdout: > 100 µM

stdin: Look up and state reported IC50 for CC(C)(C)C1=NN(c2ccc(C(=O)O)cc2)C(c2ccc([N+](=O)[O-])cc2)C1 (centres unmarked)
stdout: > 100 µM

stdin: Please report IC50 for the following molecule: COc1ccc(C2CC(c3ccc(OC)c(OC)c3)=NN2c2ccc(C(=O)O)cc2)cc1 (centres unmarked)
stdout: > 100 µM

====

- System: OVCAR-3
- TEST_DETAILS: Tumor cell growth inhibition panel
- Assay type: cell-based
- CONDITION_PARAMETERS: Homo sapiens, Ovarian
- Protocol: Thus, compound 12 is able to show broad spectrum tumor cell growth inhibitory activity independent of cyclooxygenase inhibition, whereas PDE5 may be the major contributor to such activity. The human tumor cell lines were purchased from the American Type Culture Collection (Mansassas, Va.) and maintained in RPMI-1640+2.0 g/L glucose pH 7.4+5% FBS+4 mM glutamine (complete growth medium), incubated at 37° C. in 5% CO2, and passaged at subconfluent density. […]
READOUT_LABEL: IC50 (µM)
Output spec: scalar in µM, unitless text.

stdin: In one line, give reported IC50 of the entry CC(C)(C)C1=NN(c2ccc(C(=O)O)cc2)C(c2ccc(Cl)cc2Cl)C1 (stereo not shown) .
stdout: 37.8

====

- System: SW-620
- TEST_DETAILS: Tumor cell growth inhibition panel
- Format: cell-based
- CONDITION_PARAMETERS: Homo sapiens, Colon
READOUT_LABEL: pIC50
Remember the convention: pIC50 equals -log10 of concentration in molar.

stdin: Given the compound CC(C)(C)C1=NN(c2ccc(C(=O)O)cc2)C(c2ccc(Cl)cc2Cl)C1 (stereo not shown) , write its reported pIC50.
stdout: 4.29

====

- SUBJECT_OF_TEST: PDE3B (Homo sapiens (Human))
- Sequence (Q13370 whole entry, species assumed): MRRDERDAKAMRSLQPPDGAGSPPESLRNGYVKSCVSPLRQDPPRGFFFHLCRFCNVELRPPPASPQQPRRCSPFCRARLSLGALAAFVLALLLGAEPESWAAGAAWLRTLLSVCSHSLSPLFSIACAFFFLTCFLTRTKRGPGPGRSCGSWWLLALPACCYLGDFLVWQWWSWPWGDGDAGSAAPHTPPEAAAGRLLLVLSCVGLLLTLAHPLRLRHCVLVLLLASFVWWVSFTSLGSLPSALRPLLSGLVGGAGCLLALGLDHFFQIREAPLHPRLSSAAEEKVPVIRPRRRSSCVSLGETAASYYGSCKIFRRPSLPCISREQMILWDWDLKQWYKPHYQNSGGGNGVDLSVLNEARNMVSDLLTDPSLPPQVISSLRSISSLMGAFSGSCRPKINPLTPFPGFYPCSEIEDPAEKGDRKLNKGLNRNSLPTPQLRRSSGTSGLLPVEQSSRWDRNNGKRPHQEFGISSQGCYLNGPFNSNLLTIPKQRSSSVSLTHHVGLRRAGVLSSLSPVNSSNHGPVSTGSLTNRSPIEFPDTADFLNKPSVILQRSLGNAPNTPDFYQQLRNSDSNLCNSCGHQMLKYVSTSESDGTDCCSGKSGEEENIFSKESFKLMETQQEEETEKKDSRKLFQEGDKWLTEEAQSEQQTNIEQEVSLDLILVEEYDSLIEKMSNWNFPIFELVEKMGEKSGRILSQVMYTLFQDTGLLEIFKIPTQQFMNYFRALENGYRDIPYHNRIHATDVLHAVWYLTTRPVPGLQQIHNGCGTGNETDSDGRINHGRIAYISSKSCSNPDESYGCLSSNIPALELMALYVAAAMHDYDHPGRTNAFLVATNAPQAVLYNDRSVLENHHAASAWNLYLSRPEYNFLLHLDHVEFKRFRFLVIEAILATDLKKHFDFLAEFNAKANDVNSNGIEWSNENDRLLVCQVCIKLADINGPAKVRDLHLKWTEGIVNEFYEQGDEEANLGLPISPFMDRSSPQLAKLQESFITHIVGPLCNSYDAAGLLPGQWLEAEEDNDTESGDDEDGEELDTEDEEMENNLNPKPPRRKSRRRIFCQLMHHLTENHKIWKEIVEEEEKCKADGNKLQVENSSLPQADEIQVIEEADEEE
- TEST_DETAILS: PDE isozyme selectivity, IMAP assay
- Format: biochemical
- CONDITION_PARAMETERS: substrate cGMP
READOUT_LABEL: IC50

stdin: Provide measured IC50 value, entry: CC(C)(C)C1=NN(c2ccc(C(=O)O)cc2)C(c2ccc(Cl)cc2Cl)C1 (stereo not shown) [Compound 12]
stdout: > 50 µM

====

- Tested on: NCI-ADR/RES
- TEST_DETAILS: Tumor cell growth inhibition panel
- Assay type: cell-based
- CONDITION_PARAMETERS: Homo sapiens; Other, NCI-ADR/RES (adriamycin resistant)
READOUT_LABEL: IC50 (µM)
Just the number in µM, nothing appended.

stdin: Write down IC50 measured for item CC(C)(C)C1=NN(c2ccc(C(=O)O)cc2)C(c2ccc(Cl)cc2Cl)C1 (stereo not shown)
stdout: 57.2

====

In this section, each of the molecules is paired with its reported IC50.
- SUBJECT_OF_TEST: recombinant human PDE5 (Homo sapiens (Human), UniProt O76074)
- TEST_DETAILS: PDE5 inhibition, IMAP fluorescence polarization assay
- Format: biochemical
- CONDITION_PARAMETERS: recombinant human PDE5; IC50 determined if inhibition >50% at 50 μM screening dose; read-out: IC50 μM against PDE5
State the answer as a number, implicitly in µM.

Known IC50 results, listed for orientation:
MOLECULE | IC50, µM
CC(C)(C)C1=NN(c2ccc(S(=O)(=O)O)cc2)C(c2ccc(F)cc2)C1 (centres unmarked) [Compound 25] | 3.3
CC(C)(C)C1=NN(c2ccc(C(=O)O)cc2)C(c2cccc([N+](=O)[O-])c2)C1 (centres unmarked) [Compound 3] | 3.2
CC(C)(C)C1=NN(c2ccc(C(=O)O)cc2)C(c2ccccc2Br)C1 (centres unmarked) [Compound 14] | 6.9
CC(C)(C)C1=NN(c2ccc(C(=O)O)cc2)C(c2ccccc2Cl)C1 (centres unmarked) [Compound 17] | 1.9
CC(C)(C)C1=NN(c2ccc(C(=O)O)cc2)C(c2ccc(Cl)c(Cl)c2)C1 (centres unmarked) [Compound 13] | 5.5

stdin: Identify the reported IC50 for the following entry. CC(C)(C)C1=NN(c2ccc(C(=O)O)cc2)C(c2ccccc2F)C1 (centres unmarked) [Compound 18]
stdout: 3.3

stdin: Hello, please tell me recorded IC50 for this one: CC(C)(C)C1=NN(c2ccc(C(=O)O)cc2)C(c2ccccc2)C1 (centres unmarked) [Compound 22]
stdout: 6.22

stdin: In one line, give reported IC50 of the entry COc1ccc(C2CC(c3ccccc3OC)=NN2c2ccc(C(=O)O)cc2)cc1 (centres unmarked) [Compound 8] .
stdout: 3.2

====

- Test system: SF-268
- TEST_DETAILS: Tumor cell growth inhibition panel
- Type: cell-based
- CONDITION_PARAMETERS: Homo sapiens, CNS
READOUT_LABEL: IC50 (µM)
Quick note: give the figure in µM, leave out the unit.

stdin: # assay system SF-268: give IC50 of CC(C)(C)C1=NN(c2ccc(C(=O)O)cc2)C(c2ccc(Cl)cc2Cl)C1 (stereo not shown) [Compound 12]
stdout: 41.1

====

- SUBJECT_OF_TEST: PDE3A (Homo sapiens (Human))
- Sequence (Q14432 whole entry, species assumed): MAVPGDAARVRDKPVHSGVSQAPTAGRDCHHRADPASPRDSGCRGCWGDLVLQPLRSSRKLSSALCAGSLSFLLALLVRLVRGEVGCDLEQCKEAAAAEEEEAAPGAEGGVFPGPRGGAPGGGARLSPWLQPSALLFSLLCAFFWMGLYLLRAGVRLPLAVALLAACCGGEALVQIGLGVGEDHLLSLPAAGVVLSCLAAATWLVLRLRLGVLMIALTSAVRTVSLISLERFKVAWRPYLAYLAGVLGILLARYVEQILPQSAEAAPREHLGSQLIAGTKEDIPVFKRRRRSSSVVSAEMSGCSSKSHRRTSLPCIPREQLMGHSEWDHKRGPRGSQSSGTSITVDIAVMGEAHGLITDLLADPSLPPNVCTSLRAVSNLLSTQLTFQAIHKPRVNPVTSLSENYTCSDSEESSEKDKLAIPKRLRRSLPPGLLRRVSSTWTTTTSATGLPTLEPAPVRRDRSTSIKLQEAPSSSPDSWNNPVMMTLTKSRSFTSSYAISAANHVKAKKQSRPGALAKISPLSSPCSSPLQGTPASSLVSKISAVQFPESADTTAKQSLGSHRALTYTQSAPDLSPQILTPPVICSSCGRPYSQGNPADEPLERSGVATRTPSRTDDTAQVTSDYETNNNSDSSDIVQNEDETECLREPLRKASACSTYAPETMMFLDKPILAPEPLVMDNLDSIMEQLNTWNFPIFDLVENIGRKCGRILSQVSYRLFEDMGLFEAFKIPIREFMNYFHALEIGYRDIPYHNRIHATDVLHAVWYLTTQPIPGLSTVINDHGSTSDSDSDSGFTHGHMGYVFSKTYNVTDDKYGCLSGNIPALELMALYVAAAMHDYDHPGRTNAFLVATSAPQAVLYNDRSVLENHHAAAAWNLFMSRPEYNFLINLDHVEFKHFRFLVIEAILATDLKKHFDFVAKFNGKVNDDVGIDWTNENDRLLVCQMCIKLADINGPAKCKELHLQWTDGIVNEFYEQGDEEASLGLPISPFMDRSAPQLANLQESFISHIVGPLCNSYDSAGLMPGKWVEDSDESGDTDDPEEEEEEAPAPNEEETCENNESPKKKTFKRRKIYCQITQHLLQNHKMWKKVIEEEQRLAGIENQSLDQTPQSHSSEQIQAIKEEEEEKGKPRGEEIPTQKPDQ
- TEST_DETAILS: PDE isozyme selectivity, IMAP assay
- Format: biochemical
- CONDITION_PARAMETERS: substrate cGMP
READOUT_LABEL: IC50

stdin: Provide the reported IC50 (system: PDE3A (Homo sapiens (Human))) for CC(C)(C)C1=NN(c2ccc(C(=O)O)cc2)C(c2ccc(Cl)cc2Cl)C1 (stereo not shown) [Compound 12]
stdout: > 50 µM

====

- SUBJECT_OF_TEST: PDE2A (Homo sapiens (Human), UniProt O00408)
- Sequence (O00408 whole entry, species assumed): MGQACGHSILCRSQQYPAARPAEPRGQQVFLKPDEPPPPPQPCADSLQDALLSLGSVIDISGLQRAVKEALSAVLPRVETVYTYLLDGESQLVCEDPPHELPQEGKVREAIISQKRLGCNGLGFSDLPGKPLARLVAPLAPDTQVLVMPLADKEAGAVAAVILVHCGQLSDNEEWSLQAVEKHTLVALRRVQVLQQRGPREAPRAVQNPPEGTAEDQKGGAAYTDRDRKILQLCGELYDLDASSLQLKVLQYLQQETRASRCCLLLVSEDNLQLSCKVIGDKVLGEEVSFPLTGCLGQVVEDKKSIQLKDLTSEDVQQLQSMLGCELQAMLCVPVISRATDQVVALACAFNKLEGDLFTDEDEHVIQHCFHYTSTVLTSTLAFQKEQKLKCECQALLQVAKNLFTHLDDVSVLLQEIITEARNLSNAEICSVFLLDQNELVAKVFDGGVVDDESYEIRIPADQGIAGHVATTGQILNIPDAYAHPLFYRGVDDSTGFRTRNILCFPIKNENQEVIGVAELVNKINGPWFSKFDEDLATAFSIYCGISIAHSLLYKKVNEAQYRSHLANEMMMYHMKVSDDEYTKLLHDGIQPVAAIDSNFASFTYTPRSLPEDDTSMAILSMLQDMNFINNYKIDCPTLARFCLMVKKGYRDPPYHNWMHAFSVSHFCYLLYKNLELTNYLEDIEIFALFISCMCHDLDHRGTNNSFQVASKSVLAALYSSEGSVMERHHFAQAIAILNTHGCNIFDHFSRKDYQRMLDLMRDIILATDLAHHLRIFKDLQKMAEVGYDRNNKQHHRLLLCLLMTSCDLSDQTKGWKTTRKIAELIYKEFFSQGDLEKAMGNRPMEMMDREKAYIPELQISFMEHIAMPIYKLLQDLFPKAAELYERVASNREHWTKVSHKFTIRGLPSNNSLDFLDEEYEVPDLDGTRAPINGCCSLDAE
- TEST_DETAILS: PDE isozyme selectivity, IMAP assay
- Assay type: biochemical
- CONDITION_PARAMETERS: substrate cAMP
pIC50: −log10 of the molar value.
READOUT_LABEL: pIC50

stdin: Look up and state reported pIC50 for CC(C)(C)C1=NN(c2ccc(C(=O)O)cc2)C(c2ccc(Cl)cc2Cl)C1 (stereo not shown) [Compound 12]
stdout: < 4.30

====

Quick reference: IC50 of the listed items.
- SUBJECT_OF_TEST: COX2 (Ovis aries (Sheep), UniProt P79208)
- Sequence (P79208 17-603): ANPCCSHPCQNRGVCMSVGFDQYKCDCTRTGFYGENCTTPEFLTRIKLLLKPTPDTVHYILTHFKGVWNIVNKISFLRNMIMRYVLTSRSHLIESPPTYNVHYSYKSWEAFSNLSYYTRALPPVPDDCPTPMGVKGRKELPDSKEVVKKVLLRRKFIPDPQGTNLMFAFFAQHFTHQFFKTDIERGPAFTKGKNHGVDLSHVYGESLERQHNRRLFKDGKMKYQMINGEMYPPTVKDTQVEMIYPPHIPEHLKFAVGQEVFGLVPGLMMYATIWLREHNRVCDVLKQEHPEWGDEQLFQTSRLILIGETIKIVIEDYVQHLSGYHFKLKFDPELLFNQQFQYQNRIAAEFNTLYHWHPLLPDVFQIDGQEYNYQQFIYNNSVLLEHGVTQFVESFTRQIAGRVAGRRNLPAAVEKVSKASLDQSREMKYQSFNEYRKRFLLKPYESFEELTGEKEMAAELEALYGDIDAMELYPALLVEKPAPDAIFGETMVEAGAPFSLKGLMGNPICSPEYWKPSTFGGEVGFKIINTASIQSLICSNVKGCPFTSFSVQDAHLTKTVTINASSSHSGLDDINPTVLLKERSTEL
- TEST_DETAILS: COX-2 activity, colorimetric assay
- Format: biochemical, ovine
- CONDITION_PARAMETERS: screening dose 100 μM; read-out: IC50 μM against COX2

COMPOUND | SUBJECT_OF_TEST | IC50
CC(C)(C)C1=NN(c2ccc(C(=O)O)cc2)C(c2ccc(O)cc2)C1 (centres unmarked) | COX2 (Ovis aries (Sheep), UniProt P79208) | > 100 µM

stdin: Item CC(C)(C)C1=NN(c2ccc(C(=O)O)cc2)C(c2cccc(F)c2)C1 (centres unmarked) : provide IC50
stdout: > 100 µM

====

- SUBJECT_OF_TEST: PDE1A (Homo sapiens (Human))
- Sequence (P54750 whole entry, species assumed): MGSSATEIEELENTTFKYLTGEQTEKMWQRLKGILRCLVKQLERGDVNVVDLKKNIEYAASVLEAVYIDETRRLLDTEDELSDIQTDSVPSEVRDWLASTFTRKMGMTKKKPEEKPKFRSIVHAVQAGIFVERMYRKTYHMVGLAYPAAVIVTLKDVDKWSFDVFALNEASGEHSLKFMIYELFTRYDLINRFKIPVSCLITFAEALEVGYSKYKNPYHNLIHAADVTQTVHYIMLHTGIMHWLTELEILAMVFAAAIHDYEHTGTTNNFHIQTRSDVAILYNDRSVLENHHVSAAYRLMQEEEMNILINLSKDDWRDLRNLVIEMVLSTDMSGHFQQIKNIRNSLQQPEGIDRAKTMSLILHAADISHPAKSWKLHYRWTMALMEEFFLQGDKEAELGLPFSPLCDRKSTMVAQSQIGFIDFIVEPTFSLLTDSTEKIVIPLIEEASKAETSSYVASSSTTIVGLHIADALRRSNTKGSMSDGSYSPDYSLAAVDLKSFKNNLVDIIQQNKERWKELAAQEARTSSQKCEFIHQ
- TEST_DETAILS: PDE isozyme selectivity, IMAP assay
- Type: biochemical
- CONDITION_PARAMETERS: substrate cGMP
READOUT_LABEL: IC50

stdin: State, in one line, measured IC50 of CC(C)(C)C1=NN(c2ccc(C(=O)O)cc2)C(c2ccc(Cl)cc2Cl)C1 (stereo not shown)
stdout: > 50 µM

====

- Test system: KM12
- TEST_DETAILS: Tumor cell growth inhibition panel
- Assay type: cell-based
- CONDITION_PARAMETERS: Homo sapiens, Colon
READOUT_LABEL: IC50 (µM)
Express your answer in µM, writing the number without its unit.

stdin: Please report IC50 with KM12 for item CC(C)(C)C1=NN(c2ccc(C(=O)O)cc2)C(c2ccc(Cl)cc2Cl)C1 (stereo not shown) .
stdout: 34.7

====

- SUBJECT_OF_TEST: PDE2A (Homo sapiens (Human), UniProt O00408)
- TEST_DETAILS: PDE isozyme selectivity, IMAP assay
- Format: biochemical
- CONDITION_PARAMETERS: substrate cGMP
pIC50: −log10 of the molar value.
READOUT_LABEL: pIC50

stdin: Give reported pIC50 value for CC(C)(C)C1=NN(c2ccc(C(=O)O)cc2)C(c2ccc(Cl)cc2Cl)C1 (stereo not shown)
stdout: < 4.30
